A short record of Antagonist Effect Hillslope observed with α6/3β2β3 nAChRs (Homo sapiens, UniProt Q15825) follows.
Sequence (Q15825 26-239 limits assumed): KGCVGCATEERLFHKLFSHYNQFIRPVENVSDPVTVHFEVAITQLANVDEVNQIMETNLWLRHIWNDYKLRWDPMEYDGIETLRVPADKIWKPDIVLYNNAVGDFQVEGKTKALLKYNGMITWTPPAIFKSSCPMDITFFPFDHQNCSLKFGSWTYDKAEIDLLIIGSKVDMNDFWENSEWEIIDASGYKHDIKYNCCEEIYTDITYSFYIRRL
Sequence (P17787 26-238 limits assumed, further chain): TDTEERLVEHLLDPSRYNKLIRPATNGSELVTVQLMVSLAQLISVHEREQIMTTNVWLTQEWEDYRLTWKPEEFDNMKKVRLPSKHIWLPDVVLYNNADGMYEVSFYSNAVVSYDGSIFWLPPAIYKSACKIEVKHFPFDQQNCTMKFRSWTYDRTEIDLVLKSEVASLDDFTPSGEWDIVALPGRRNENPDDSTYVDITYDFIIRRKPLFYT
Sequence (Q05901 22-237 limits assumed, further chain): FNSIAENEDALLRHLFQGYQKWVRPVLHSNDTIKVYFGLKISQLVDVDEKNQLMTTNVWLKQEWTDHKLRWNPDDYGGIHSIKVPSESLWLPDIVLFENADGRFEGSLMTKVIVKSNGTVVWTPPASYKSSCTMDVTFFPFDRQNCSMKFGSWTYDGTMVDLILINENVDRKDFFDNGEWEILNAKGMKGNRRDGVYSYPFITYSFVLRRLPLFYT
Give the figure by itself; no unit, no explanation.

- CN1CCCC1c1cccnc1 (racemic) [Synthetic RS racemic nicotine, RS-Nicotine]: 1.36
- CN1CCC[C@@H]1c1cccnc1 [Synthetic R nicotine, R nicotine]: 1.07
- CN1CCC[C@H]1c1cccnc1 [Sigma-Aldrich S nicotine, S nicotine]: 0.96
- CN1CCC[C@H]1c1cccnc1 [Synthetic S nicotine, S nicotine]: 1.10
- CN1CCCC1c1cccnc1 (stereo not drawn) [Ref. nicotine (Sigma-Aldrich), nicotine]: 0.72

# evaluate next
What measured Antagonist Effect Hillslope goes with CN1CCC[C@H]1c1cccnc1 [Alchem S nicotine, S nicotine] ?
0.97
